- Tested on: SC27B
- experimental.protocol: qHTS profiling for inhibitors of Plasmodium falciparum proliferation (AID 504749);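 further: 0% = DMSO vehicle and full inhibition = artemisinin control; nearly all actives have a fitted effect of over 60% in size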
- test.context: P. falciparum in erythrocytes, SYBR Green DNA, 72 h; series mostly up to 28.7 µM
Inconclusive results are not listed. The source made the active and inactive calls. The call rests on the fitted dose curve; in most records, active means well fitted inhibition curve with a large enough effect; inconclusive means small, poorly fitted or top-dose-only effect; inactive means flat fitted curve, though single readings scatter.
Form entry, call: pick from T (active), F (inactive)

# molecule, qualitative.label
records = [
    ("CCn1cc(C(=O)O)c(=O)c2cc(F)c(N3CCNCC3)cc21", "F"),
    ("CC(C)(C)C(=O)OCOP(=O)(COCCn1cnc2c(N)ncnc21)OCOC(=O)C(C)(C)C", "F"),
    ("CCN(C)C(=O)Oc1cccc([C@H](C)N(C)C)c1", "F"),
]

Request: # lookup: test call for `O=P(O)(O)C(O)(Cc1cccnc1)P(=O)(O)O`
Result: F

Request: For `S=P(N1CC1)(N1CC1)N1CC1` , which call appears in the assay record?
Result: F

Request: Just curious, what result did `CC[C@H](NC(C)C)[C@H](O)c1ccc(O)c2[nH]c(=O)ccc12` get here?
Result: F

Request: Kindly provide the recorded test outcome for the following molecule: `CN1CCN(c2c(F)cc3c(=O)c(C(=O)O)cn(CCF)c3c2F)CC1`
Result: F

Request: Write down the call the test reported for this molecule. Item: `CC(=O)Oc1ccccc1C(=O)Nc1ncc([N+](=O)[O-])s1`
Result: F

* * *

- experimental.protocol: Quantitative High-Throughput drug screen in 47 multiple myeloma cell lines against the NCATS MIPE library collection: ARD_JJKsccE7 cell viability assay (AID 1918929; further: potency means the concentration at half of the fitted maximal effect;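 on viability: 100% = DMSO-only wells and 0% = media-only wells without cells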)
- test.context: ARD myeloma cell line viability, CellTiter-Glo, 48 h; series mostly up to 45.8 µM
Inconclusive results are not listed. Activity calls are given as the source filed them. Calls come from the whole dose curve; as a rule, active = well fitted cell-killing curve with a large enough effect; inconclusive = small, poorly fitted or top-dose-only effect, or effect the other way; inactive = no such curve, though single readings can be large or run the other way.
experimental.endpoint: Potency

// worked examples, Potency included
# compound, Potency
records = [
    ("CNC1CCCN(c2c(F)cc3c(=O)c(C(=O)O)cn(C4CC4)c3c2OC)C1 (stereo not given)", "inactive"),
    ("O=S(=O)(c1cccc2cnccc12)N1CCCNCC1", "inactive"),
    ("Nc1[nH]c(=O)ncc1F", "inactive"),
    ("CCC(=O)O[C@]1(C(=O)SCF)[C@H](C)C[C@H]2[C@@H]3C[C@H](F)C4=CC(=O)C=C[C@]4(C)[C@@]3(F)[C@@H](O)C[C@@]21C", "inactive"),
]

Now consider the entry below.
Notebook: `COc1cc2nc(N3CCCN(C)CC3)nc(NC3CCN(Cc4ccccc4)CC3)c2cc1OC` , Potency read as 8.33 µM (active)

* * *

Measured activity, negative = inhibition accompanies every entry in the list below.
- experimental.protocol: Stat Signaling Pathway (AID 446);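 further: ME-180 cervical cancer cells given 40 pM IL-6 alongside compound; SIE-controlled beta-lactamase reporter measured as 460/530 nm FRET emission ratio; on the % scale 0 is the no-effect control and ±100 the full control effect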
- test.context: ME-180 (cervical carcinoma) SIE beta-lactamase reporter, IL-6 stimulated, 5 h; at 17.2 µM (top of the series) unless noted
Records with an inconclusive call do not appear. Active and inactive are the calls of the source. Calls follow the shape of the dose curve; as a rule, active = well fitted curve in either direction with a large enough effect (not every such curve was filed as active); inconclusive = small, poorly fitted or top-dose-only effect, or another doubt; inactive = flat fitted curve, though single readings scatter.

The reported activity, negative = inhibition of the compound `N=C(N)c1ccc(OCCCCCOc2ccc(C(=N)N)cc2)cc1` was 15.4% (inactive)

For this compound ( `COc1ccc2cc3[n+](cc2c1OC)CCc1cc2c(cc1-3)OCO2` ), measured activity, negative = inhibition is -1.52% (inactive)

response.value for `Cc1ccc(S(=O)(=O)N[C@@H](Cc2ccccc2)C(=O)CCl)cc1` (field: activity, negative = inhibition) = -65.8% [at 38 µM] (active)
